test: Mouse pharmacokinetic study, oral administration; assay type: in vivo; details: male, C57BL/6, mouse, plasma, po, 100 mg/kg, plasma, male C57BL/6 mice, oral gavage 100 mg/kg, 8 h; read-out: Parent compound concentrations following oral administration, Time 8 h
Measured Quantity: concentration at 8 h

INSERT INTO assay_data (compound, recorded_result) VALUES
  ('C=C(CC(=O)OC)C(=O)OC [dimethyl itaconate, reference compound]', '< 24 ng/mL'),
  ('C=C(CC(=O)OCCCCCCCC)C(=O)OCCC(=O)O', '< 1.5 ng/mL'),
  ('C=C(CC(=O)OCCCOc1ccccc1)C(=O)OCCC(=O)O', '< 3 ng/mL');

----------
concentration at 2 h overview
experiment: Mouse pharmacokinetic study, intravenous dosing; format: in vivo; settings: male, C57BL/6, mouse, iv; plasma, 10 mg/kg i.v., time 2 h; read-out: Parent compound concentration following intravenous administration
Measured Quantity: concentration at 2 h

INSERT INTO results (molecule, recorded_result) VALUES
  ('C=C(CC(=O)O[C@H]1C[C@H]2CC[C@]1(C)C2(C)C)C(=O)OCC(=O)O', '< 4 ng/mL'),
  ('C=C(CC(=O)O[C@@H](C)CCCCCC)C(=O)OCc1nn[nH]n1', '< 4 ng/mL'),
  ('C=C(CC(=O)OC1CCCCCCC1)C(=O)OC(C)c1nnn[nH]1 (stereo not shown)', '< 8 ng/mL'),
  ('C=C(CC(=O)OC)C(=O)OC [dimethyl itaconate, reference compound]', '< 24 ng/mL');

----------
tested on: IL-1β cytokine output from THP-1s; assay: THP-1 AlphaLISA IL-1β cytokine assay; format: cell-based, human; details: Homo sapiens, THP-1, PMA-differentiated THP-1 cells, LPS 24 hr then Nigericin 1 hour; read-out: IL-1β (IC50)
Where a name gives a salt, the structure may show the parent alone.
Measured Quantity: IC50 (µM)

INSERT INTO assay_data (molecule, measured_quantity, value_unit, recorded_result) VALUES
  ('C=C(CC(=O)OCCCCCCCC)C(=O)OCC(=O)N1CCC[C@H]1C(=O)O [Example 99]', 'IC50', 'µM', 1.9),
  ('C=C(CC(=O)O[C@H](C)C1CCCCC1)C(=O)OCC(=O)O [Example 184]', 'IC50', 'µM', 33.9),
  ('C=C(CC(=O)OC1CCCCC1)C(=O)OC1CCN(S(C)(=O)=O)CC1 [Example 75]', 'IC50', 'µM', 11.2),
  ('C=C(C(=O)OCC(=O)O)C(O)C(=O)OC1CCCCCCC1 (stereo not shown) [Example 189]', 'IC50', 'µM', 57.9),
  ('C=C(CC(=O)OCCCCCCCC)C(=O)OC(C)C(=O)N(C)CC(=O)O (stereo not shown) [Example 100]', 'IC50', 'µM', 11),
  ('C=C(CC(=O)OC1CC2(CCCC2)C1)C(=O)OCC(=O)O [Example 152]', 'IC50', 'µM', 10.3),
  ('C=C(CC(=O)OCCOCCOCC)C(=O)OCCS(C)(=O)=O [Example 36]', 'IC50', 'µM', 20.5),
  ('C=C(CC(=O)OC1CCC1)C(=O)OCC(=O)O [Example 116]', 'IC50', 'µM', 100),
  ('C=C(CC(=O)OC1CCCCCCC1)C(=O)OCC(C)(C)S(C)(=O)=O [Example 132]', 'IC50', 'µM', 4.3),
  ('C=C(CC(=O)OC(C)(C)CCCCCC)C(=O)OCC(=O)O [Example 192]', 'IC50', 'µM', 10.6),
  ('C=C(CC(=O)OC1CCCCCCC1)C(=O)OC1(CC(=O)OCC)COC1 [Example 137]', 'IC50', 'µM', 5.7),
  ('C=C(CC(=O)OC)C(=O)OCCC#N [Example 10]', 'IC50', 'µM', 27.9),
  ('C=C(CC(=O)OC1CCC2(CCC2)CC1)C(=O)OCC(=O)O [Example 154]', 'IC50', 'µM', 8.4),
  ('C=C(CC(=O)O[C@H](C)c1ccc(C(F)(F)F)cc1)C(=O)OCC(=O)O [Example 200]', 'IC50', 'µM', 11.5),
  ('C=C(CC(=O)OC1CC2CCC1C2)C(=O)OCC(=O)O (stereo not shown) [Example 115]', 'IC50', 'µM', 59.5),
  ('C=C(CC(=O)O[C@H]1C[C@H]2CC[C@]1(C)C2(C)C)C(=O)OCC(=O)O [Example 179]', 'IC50', 'µM', 11),
  ('C=C(CC(=O)OCCCOc1ccccc1)C(=O)OCCS(C)(=O)=O [Example 20]', 'IC50', 'µM', 5.6),
  ('COC(=O)/C=C/C(=O)OC [dimethyl fumarate, reference compound]', 'IC50', 'µM', 14.4),
  ('C=C(CC(=O)OC(C)CCCCCCC)C(=O)OCC(=O)O (stereo not shown) [Example 174]', 'IC50', 'µM', 10.9),
  ('C=C(CC(=O)OC1CC2(CCCCC2)C1)C(=O)OCC(=O)O [Example 153]', 'IC50', 'µM', 7),
  ('C=C(CC(=O)OCCS(=O)(=O)c1ccc(C)cc1)C(=O)OCC(=O)O [Example 97]', 'IC50', 'µM', 29.3),
  ('C=C(CC(=O)OC1(C)CC2(CCCCC2)C1)C(=O)OCC(=O)O [Example 195]', 'IC50', 'µM', 24.3),
  ('C=C(CC(=O)OCCCCCC)C(=O)OC1CCN(S(C)(=O)=O)CC1 [Example 76]', 'IC50', 'µM', 4.1),
  ('C=C(CC(=O)O[C@@H](C)CCCCCC)C(=O)OC(c1nn[nH]n1)C1CC1 (stereo partly shown) [Example 166]', 'IC50', 'µM', 67.4),
  ('C=C(CC(=O)OC1CCCCCCC1)C(=O)OCCS(C)(=O)=O [Example 25]', 'IC50', 'µM', 1.9);

----------
Recorded concentration at 4 h values for a group of molecules are listed next.
experiment: Mouse pharmacokinetic study, intravenous dosing; format: in vivo; conditions: male, C57BL/6, mouse, iv; plasma, 10 mg/kg i.v., time 4 h; read-out: Parent compound concentration following intravenous administration
Measured Quantity: concentration at 4 h (ng/mL)

INSERT INTO assay_data (molecule, measured_quantity, bound_type, recorded_result) VALUES
  ('C=C(CC(=O)O[C@@H](C)CCCCCC)C(=O)OCC(=O)O', 'concentration at 4 h', '=', 6.8),
  ('C=C(CC(=O)OC1CCCCCCC1)C(=O)OC(C)c1nnn[nH]1 (stereo not drawn)', 'concentration at 4 h', '<', 8),
  ('C=C(CC(=O)O[C@@H](CCCCCC)C(F)(F)F)C(=O)OCC(=O)O', 'concentration at 4 h', '=', 20);

----------
assay: Mouse pharmacokinetic study, oral administration; type: in vivo; conditions: male, C57BL/6, mouse, plasma, po, 100 mg/kg, plasma, male C57BL/6 mice, oral gavage 100 mg/kg, 24 h; read-out: Parent compound concentrations following oral administration, Time 24 h
Measured Quantity: concentration at 24 h

INSERT INTO results (molecule, recorded_result) VALUES
  ('C=C(CC(=O)OC1CCCCC1)C(=O)OCCC(=O)O', '< 14 ng/mL'),
  ('C=C(CC(=O)OC1CCCCC1)C(=O)OCC(=O)O', '13 ng/mL'),
  ('C=C(CC(=O)OCCCCCCCC)C(=O)OCCC(=O)O', '< 1.5 ng/mL'),
  ('C=C(CC(=O)OC1CCCCCCC1)C(=O)OCc1nnn[nH]1', '7 ng/mL'),
  ('C=C(CC(=O)OC1CCCCCCC1)C(=O)OC(C)c1nnn[nH]1 (stereo not drawn)', '< 8 ng/mL'),
  ('C=C(CC(=O)OC1CCCCC1)C(=O)OCc1nnn[nH]1', '< 0.8 ng/mL'),
  ('C=C(CC(=O)O[C@@H](C)CCCCCC)C(=O)OCc1nn[nH]n1', '< 4 ng/mL'),
  ('C=C(CC(=O)O[C@H](CC)CCCCC)C(=O)OCC(=O)O', '< 4 ng/mL'),
  ('C=C(CC(=O)OC1CC2(CCC2)C1)C(=O)OCC(=O)O', '< 0.8 ng/mL'),
  ('C=C(CC(=O)OCCCOc1ccccc1)C(=O)OCCC(=O)O', '< 3 ng/mL'),
  ('C=C(CC(=O)OCCCCCCCC)C(=O)OCC(=O)O', '< 1.5 ng/mL'),
  ('C=C(CC(=O)OC(C)(C)CCCCCC)C(=O)OCC(=O)O', '6.6 ng/mL');

----------
experiment: Mouse pharmacokinetic study, oral administration; assay type: in vivo; conditions: male, C57BL/6, mouse, plasma, po, 100 mg/kg, plasma, male C57BL/6 mice, oral gavage 100 mg/kg, 0.25 h; read-out: Parent compound concentrations following oral administration, Time 0.25 h
Measured log10(concentration at 0.25 h) accompanies every entry in the list below.
Measured Quantity: log10(concentration at 0.25 h) (log10 of the value in ng/mL)

INSERT INTO results (item_smiles, recorded_result) VALUES
  ('C=C(CC(=O)OC1CCCCCCC1)C(=O)OCc1nnn[nH]1', 3.54),
  ('C=C(CC(=O)OC1CCCCC1)C(=O)OCC(=O)O', 3.95),
  ('C=C(CC(=O)OC(CCCC)CCCC)C(=O)OCC(=O)O', 4.29),
  ('C=C(CC(=O)O[C@@H](C)CCCCCC)C(=O)OCc1nn[nH]n1', 3.47),
  ('C=C(CC(=O)O[C@@H](C)CCCCCC)C(=O)OCC(=O)O', 4.59),
  ('C=C(CC(=O)OCCCCCC)C(=O)OCC(=O)O', 4.10),
  ('C=C(CC(=O)OC1CCCCC1)C(=O)OCc1nnn[nH]1', 3.64),
  ('C=C(CC(=O)OC1CCCCC1)C(=O)OCCC(=O)O', 4.55),
  ('C=C(CC(=O)O[C@H](C)CCCCCC)C(=O)OCC(=O)O', 4.81),
  ('C=C(CC(=O)O[C@@H](C)CCCCCC)C(=O)OCCC(=O)O', 3.96),
  ('C=C(CC(=O)O[C@H](CC)CCCCC)C(=O)OCC(=O)O', 4.43),
  ('C=C(CC(=O)OCCCCCCCC)C(=O)OCC(=O)O', 2.73),
  ('C=C(CC(=O)O[C@@H](CCCCCC)C(F)(F)F)C(=O)OCC(=O)O', 4.67),
  ('C=C(CC(=O)O[C@@H](C)CCCCCC)C(=O)OCCc1nnn[nH]1', 3.01);
